Measured On: plasma purified human complement protein C3 (human) (UniProt P01024)
Sequence (P01024 23-667, chain 1 of 2): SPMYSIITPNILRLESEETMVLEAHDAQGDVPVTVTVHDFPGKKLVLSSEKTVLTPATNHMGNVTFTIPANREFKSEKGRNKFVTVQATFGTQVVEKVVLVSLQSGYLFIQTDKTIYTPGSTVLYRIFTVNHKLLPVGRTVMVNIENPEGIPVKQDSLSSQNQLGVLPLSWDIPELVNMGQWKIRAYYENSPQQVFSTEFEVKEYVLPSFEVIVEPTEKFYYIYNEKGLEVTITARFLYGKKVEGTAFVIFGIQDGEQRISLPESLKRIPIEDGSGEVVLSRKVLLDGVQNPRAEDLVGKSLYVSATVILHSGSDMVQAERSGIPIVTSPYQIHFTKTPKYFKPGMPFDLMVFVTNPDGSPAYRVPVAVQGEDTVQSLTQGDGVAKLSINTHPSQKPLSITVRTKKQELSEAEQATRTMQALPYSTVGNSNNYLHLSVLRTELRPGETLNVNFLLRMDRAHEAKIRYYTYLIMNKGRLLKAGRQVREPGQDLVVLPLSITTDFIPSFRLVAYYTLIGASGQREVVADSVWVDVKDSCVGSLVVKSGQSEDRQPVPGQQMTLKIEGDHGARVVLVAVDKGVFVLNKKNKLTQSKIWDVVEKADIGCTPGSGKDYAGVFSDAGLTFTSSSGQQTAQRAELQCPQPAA
Sequence (P01024 672-1663, chain 2 of 2): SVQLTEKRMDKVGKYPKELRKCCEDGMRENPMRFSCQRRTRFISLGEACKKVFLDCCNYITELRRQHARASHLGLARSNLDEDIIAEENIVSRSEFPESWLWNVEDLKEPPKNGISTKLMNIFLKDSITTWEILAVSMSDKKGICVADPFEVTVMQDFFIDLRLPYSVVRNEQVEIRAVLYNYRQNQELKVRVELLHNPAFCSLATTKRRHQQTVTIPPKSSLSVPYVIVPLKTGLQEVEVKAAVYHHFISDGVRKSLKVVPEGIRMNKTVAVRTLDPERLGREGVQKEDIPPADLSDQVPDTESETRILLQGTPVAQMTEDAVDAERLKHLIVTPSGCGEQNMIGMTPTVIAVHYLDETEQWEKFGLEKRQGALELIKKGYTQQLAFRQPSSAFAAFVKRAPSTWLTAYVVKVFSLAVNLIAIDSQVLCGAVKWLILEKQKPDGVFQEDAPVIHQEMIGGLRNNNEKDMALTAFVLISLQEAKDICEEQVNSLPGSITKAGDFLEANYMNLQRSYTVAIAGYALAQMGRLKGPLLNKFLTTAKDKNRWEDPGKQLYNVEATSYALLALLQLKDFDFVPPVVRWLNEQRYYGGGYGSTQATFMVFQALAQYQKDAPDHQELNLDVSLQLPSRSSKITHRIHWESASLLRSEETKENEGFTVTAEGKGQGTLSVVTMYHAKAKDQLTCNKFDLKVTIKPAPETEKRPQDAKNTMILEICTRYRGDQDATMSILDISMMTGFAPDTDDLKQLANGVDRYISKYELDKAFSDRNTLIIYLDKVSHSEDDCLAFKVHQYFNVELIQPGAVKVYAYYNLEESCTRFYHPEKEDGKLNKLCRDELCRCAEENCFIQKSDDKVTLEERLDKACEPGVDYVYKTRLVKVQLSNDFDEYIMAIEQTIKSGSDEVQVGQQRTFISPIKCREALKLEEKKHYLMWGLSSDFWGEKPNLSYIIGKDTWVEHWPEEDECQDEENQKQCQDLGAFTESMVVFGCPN
Method: cell-based or functional assay
Catalogue of EC50 of hC3 cleavage readings, one per entry.
Form entry: value (nM) — number only.

Some solved entries appear below for comparison.
Binder: MTSP-1 H40P/I41R/F99L/C122S/G151K/Q192G (enzyme) VVGGTDADEGEWPWQVSLHALGQGPRCGASLISPNWLVSAAHCYIDDRGFRYSDPTQWTAFLGLHDQSQRSAPGVQERRLKRIISHPFFNDFTLDYDIALLELEKPAEYSSMVRPISLPDASHVFPAGKAIWVTGWGHTQYGGTKALILQKGEIRVINQTTCENLLPQQITPRMMCVGFLSGGVDSCGGDSGGPLSSVEADGRIFQAGVVSWGDGCAQRNKPGVYTRLPLFRDWIKENTGV
EC50 of hC3 cleavage / nM: 96.1
--
Binder: MTSP-1 Y59F/ins97aE/F97T/T98G/F99L/C122S/L153Q/Q175L/Q192E (enzyme) VVGGTDADEGEWPWQVSLHALGQGHICGASLISPNWLVSAAHCFIDDRGFRYSDPTQWTAFLGLHDQSQRSAPGVQERRLKRIISHPFFNDTEGLDYDIALLELEKPAEYSSMVRPISLPDASHVFPAGKAIWVTGWGHTQYGGTGAQILQKGEIRVINQTTCENLLPQLITPRMMCVGFLSGGVDSCEGDSGGPLSSVEADGRIFQAGVVSWGDGCAQRNKPGVYTRLPLFRDWIKENTGV
EC50 of hC3 cleavage / nM: 237

Read the next record carefully.
Name the reported EC50 of hC3 cleavage value associated with the binder MTSP-1 Q38H/I41S/D60bT/F60eS/Y60gW/ins97aV/F97D/T98P/F99L/C122S/G151N/Q175L/Q192D (enzyme) VVGGTDADEGEWPWQVSLHALGHGHSCGASLISPNWLVSAAHCYIDTRGSRWSDPTQWTAFLGLHDQSQRSAPGVQERRLKRIISHPFFNDDVPLDYDIALLELEKPAEYSSMVRPISLPDASHVFPAGKAIWVTGWGHTQYGGTNALILQKGEIRVINQTTCENLLPQLITPRMMCVGFLSGGVDSCDGDSGGPLSSVEADGRIFQAGVVSWGDGCAQRNKPGVYTRLPLFRDWIKENTGV
15.4
